testedTarget: KDR (phospho-KDR, VEGF165-stimulated HUVEC cells) (Homo sapiens (Human), UniProt P35968)
Sequence (P35968 20-1356): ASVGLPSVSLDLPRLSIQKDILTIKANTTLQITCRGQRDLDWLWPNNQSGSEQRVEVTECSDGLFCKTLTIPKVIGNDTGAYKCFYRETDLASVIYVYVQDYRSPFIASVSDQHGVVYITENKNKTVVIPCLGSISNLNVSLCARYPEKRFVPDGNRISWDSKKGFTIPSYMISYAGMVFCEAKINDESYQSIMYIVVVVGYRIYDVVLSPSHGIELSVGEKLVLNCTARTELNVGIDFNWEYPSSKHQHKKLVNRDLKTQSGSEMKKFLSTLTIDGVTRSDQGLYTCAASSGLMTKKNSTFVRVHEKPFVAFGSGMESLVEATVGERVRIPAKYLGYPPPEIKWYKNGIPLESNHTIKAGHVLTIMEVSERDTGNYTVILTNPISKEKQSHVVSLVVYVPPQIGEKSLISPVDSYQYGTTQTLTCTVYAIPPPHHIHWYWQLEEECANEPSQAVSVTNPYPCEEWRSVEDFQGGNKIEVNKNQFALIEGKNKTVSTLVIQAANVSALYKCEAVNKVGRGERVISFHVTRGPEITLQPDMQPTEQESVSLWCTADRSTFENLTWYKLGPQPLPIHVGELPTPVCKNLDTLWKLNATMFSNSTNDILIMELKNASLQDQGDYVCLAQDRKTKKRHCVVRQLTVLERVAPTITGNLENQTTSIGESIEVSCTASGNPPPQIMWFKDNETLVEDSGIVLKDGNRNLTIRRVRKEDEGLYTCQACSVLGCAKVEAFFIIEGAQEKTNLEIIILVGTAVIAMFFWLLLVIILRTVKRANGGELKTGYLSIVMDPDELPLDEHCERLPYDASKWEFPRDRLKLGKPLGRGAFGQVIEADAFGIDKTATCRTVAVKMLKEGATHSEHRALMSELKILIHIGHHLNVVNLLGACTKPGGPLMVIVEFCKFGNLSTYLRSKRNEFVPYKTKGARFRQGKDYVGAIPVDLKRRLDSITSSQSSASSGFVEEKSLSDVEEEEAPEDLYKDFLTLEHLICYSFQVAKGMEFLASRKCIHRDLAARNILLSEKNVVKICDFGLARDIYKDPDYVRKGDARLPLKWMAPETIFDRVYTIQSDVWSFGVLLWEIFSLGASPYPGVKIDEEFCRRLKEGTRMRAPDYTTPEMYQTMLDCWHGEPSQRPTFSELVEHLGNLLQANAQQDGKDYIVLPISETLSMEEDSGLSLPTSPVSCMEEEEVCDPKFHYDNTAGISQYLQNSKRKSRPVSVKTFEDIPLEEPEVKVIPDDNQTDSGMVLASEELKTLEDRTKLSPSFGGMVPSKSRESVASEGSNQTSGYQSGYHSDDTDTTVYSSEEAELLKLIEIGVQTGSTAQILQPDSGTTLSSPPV
procedureDetails: KDR autophosphorylation ELISA in HUVEC cells (Example G)
Format: cell-based
conditionSummary: cellular activity; KDR autophosphorylation ELISA in HUVEC cells
Experimental: Human umbilical vein endothelial cells or HUVEC (Lonza #C2519A) were seeded at 2×10^4 cells/well onto 96-well plates (Corning #3904), in EGM-2 growth medium (Lonza #CC-3162) containing 1% Penicillin Streptomycin (Thermo Fisher #15140-122). […] IC50 values were calculated by nonlinear regression analysis using a 4-parameter logistic curve fit in ActivityBase XE (IDBS).
outcomeMeasure: IC50

Consider the reported IC50 for these molecules:
[[record]]
cpdsmiles = "C=C(C)c1cnc2c(Oc3ccc(NC(=O)c4c(C)nc(C)n(-c5ccc(F)cc5)c4=O)cc3)ccnc2c1"
outcomemeasure = "IC50"
valuemeasured = "< 100 nM"

[[record]]
cpdsmiles = "COc1cc2nccc(Oc3ccc(NC(=O)c4c[nH]c(=O)n(-c5ccc(F)cc5)c4=O)cc3F)c2nc1OC"
outcomemeasure = "IC50"
valuemeasured = "< 100 nM"

[[record]]
cpdsmiles = "CCOc1ccn(-c2ccc(F)cc2)c(=O)c1C(=O)Nc1ccc(Oc2ccnc3cc(OC)cnc23)cc1"
outcomemeasure = "IC50"
valuemeasured = "> 300 nM"


Note down IC50 recorded for "COc1cc2nccc(Oc3ccc(NC(=O)c4cn(C(C)C)c(C)c(-c5ccc(F)cc5)c4=O)cc3F)c2cc1OC" 100 to 300 nM

Quickly give me recorded IC50 for "C=C(C)c1cnc2c(Oc3ccc(NC(=O)c4c(C)nc(C)c(-c5ccc(F)cc5)c4O)cc3)ccnc2c1" < 100 nM

---

testedTarget: KDR (phospho-KDR, VEGF165-stimulated HUVEC cells) (Homo sapiens (Human), UniProt P35968)
procedureDetails: KDR autophosphorylation ELISA in HUVEC cells (Example G)
Format: cell-based
conditionSummary: cellular activity; KDR autophosphorylation ELISA in HUVEC cells
outcomeMeasure: IC50

// below: answered molecules
[[record]]
cpdsmiles = "COc1cc2nccc(Oc3ccc(NC(=O)c4cccn(-c5ccc(F)cc5)c4=O)cc3F)c2nc1OC"
testedtarget = "KDR (phospho-KDR, VEGF165-stimulated HUVEC cells) (Homo sapiens (Human), UniProt P35968)"
outcomemeasure = "IC50"
valuemeasured = "< 100 nM"

[[record]]
cpdsmiles = "COc1ccc2nccc(Oc3ccc(NC(=O)c4c(C)cc(C)n(-c5ccc(F)cc5)c4=O)cc3F)c2n1"
testedtarget = "KDR (phospho-KDR, VEGF165-stimulated HUVEC cells) (Homo sapiens (Human), UniProt P35968)"
outcomemeasure = "IC50"
valuemeasured = "< 100 nM"

[[record]]
cpdsmiles = "COc1cnc2c(Oc3ccc(NC(=O)c4ncc(C)n(-c5ccc(F)cc5)c4=O)cc3)ccnc2c1"
testedtarget = "KDR (phospho-KDR, VEGF165-stimulated HUVEC cells) (Homo sapiens (Human), UniProt P35968)"
outcomemeasure = "IC50"
valuemeasured = "> 300 nM"


Here is another molecule to look at.
Give reported IC50 value for "COCCOc1nc2c(Oc3ccc(NC(=O)c4ccc(C)n(-c5ccc(F)cc5)c4=O)cc3F)ccnc2cc1OC" < 100 nM

---

testedTarget: KDR (phospho-KDR, VEGF165-stimulated HUVEC cells) (Homo sapiens (Human), UniProt P35968)
procedureDetails: KDR autophosphorylation ELISA in HUVEC cells (Example G)
Type: cell-based
conditionSummary: cellular activity; KDR autophosphorylation ELISA in HUVEC cells
pIC50: −log10 of the molar value.
outcomeMeasure: pIC50

[[record]]
molecule = "COc1cc2nccc(Oc3ccc(NC(=O)c4cc(C)nn(-c5ccc(F)cc5)c4=O)cc3)c2nc1OC [Compound 520]"
testedtarget = "KDR (phospho-KDR, VEGF165-stimulated HUVEC cells) (Homo sapiens (Human), UniProt P35968)"
outcomemeasure = "pIC50"
valuemeasured = "> 7.00"

[[record]]
molecule = "COc1cnc2c(Oc3ccc(NC(=O)c4cn(CC(F)(F)F)c(C)c(-c5ccc(F)cc5)c4=O)cc3F)ccnc2c1 [Compound 261]"
testedtarget = "KDR (phospho-KDR, VEGF165-stimulated HUVEC cells) (Homo sapiens (Human), UniProt P35968)"
outcomemeasure = "pIC50"
valuemeasured = "< 6.52"


Answer with the recorded pIC50 of CNc1c(C(=O)Nc2ccc(Oc3ccnc4cc(OC)c(OC)nc34)c(F)c2)c(=O)c(-c2ccc(F)cc2)c(C)n1C [Compound 649] only. < 6.52

Provide pIC50 value for the following molecule: COCCOc1nc2c(Oc3ccc(NC(=O)c4cn(C)c(C)c(-c5ccc(F)cc5)c4=O)cc3F)ccnc2cc1OC [Compound 198] > 7.00

Quickly give me recorded pIC50 for Cc1cc(F)ccc1-c1c(C)ncc(C(=O)Nc2ccc(Oc3ccnc4cc(C(C)C)cnc34)cc2)c1O [Compound 597] 6.52 to 7.00

---

testedTarget: Human KDR (residues 790-1356) (Homo sapiens (Human))
Sequence (P35968 790-1356): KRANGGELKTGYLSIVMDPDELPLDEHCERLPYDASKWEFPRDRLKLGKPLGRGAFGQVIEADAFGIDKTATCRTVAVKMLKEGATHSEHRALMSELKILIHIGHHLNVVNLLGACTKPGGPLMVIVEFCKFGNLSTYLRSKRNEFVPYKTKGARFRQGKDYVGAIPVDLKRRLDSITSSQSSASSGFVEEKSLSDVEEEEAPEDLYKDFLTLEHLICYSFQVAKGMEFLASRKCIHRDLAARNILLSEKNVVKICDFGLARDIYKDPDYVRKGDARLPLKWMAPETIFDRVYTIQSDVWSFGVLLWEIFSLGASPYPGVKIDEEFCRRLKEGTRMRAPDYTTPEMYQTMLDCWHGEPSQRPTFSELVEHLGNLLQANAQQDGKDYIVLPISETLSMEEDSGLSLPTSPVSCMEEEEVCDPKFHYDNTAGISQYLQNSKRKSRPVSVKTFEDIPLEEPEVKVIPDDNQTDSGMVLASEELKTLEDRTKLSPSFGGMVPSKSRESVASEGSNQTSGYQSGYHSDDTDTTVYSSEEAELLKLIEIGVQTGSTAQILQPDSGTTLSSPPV
procedureDetails: Human KDR kinase assay, HTRF KinEase (Example B-2)
Type: biochemical
conditionSummary: protocol of Example B-2
Experimental: Kinase activity and compound inhibition were also investigated using the HTRF® KinEase assay (Cisbio Cat #62TKOPEB) per manufacturer's instructions. […] After a 60 min incubation at room temperature, the fluorescence at 665 nm and 620 nm was read on an Envision microplate reader (Perkin Elmer). Kinase activity normalized to DMSO (100% activity) and reference compound at […] and (0% activity) was calculated using the fluorescence ratio 620/665×10,000. […]
Listing of recorded IC50 by entry.

Solved entries (count: 2):
[[record]]
molecule = "CNC(=O)c1c(-c2ccc(F)cc2)c(=O)c(C(=O)Nc2ccc(Oc3ccnc4cc(OC)c(OC)nc34)c(F)c2)cn1C [Compound 563]"
valuemeasured = "> 300 nM"

[[record]]
molecule = "COCCOc1cnc2c(Oc3ccc(NC(=O)c4c(C)nc(C)c(-c5ccc(F)cc5)c4O)cc3F)ccnc2c1 [Compound 555]"
valuemeasured = "< 100 nM"


// next item, IC50 requested
Could you please provide reported IC50 for C=C(C)c1cc2nccc(Oc3ccc(NC(=O)c4cnc(C)c(-c5ccc(F)cc5)c4O)cc3F)c2nc1OC [Compound 452] ? Thanks! 100 to 300 nM

---

testedTarget: KDR (phospho-KDR, VEGF165-stimulated HUVEC cells) (Homo sapiens (Human))
procedureDetails: KDR autophosphorylation ELISA in HUVEC cells (Example G)
Assay type: cell-based
conditionSummary: cellular activity; KDR autophosphorylation ELISA in HUVEC cells
Where a name gives a salt, the structure may show the parent alone.
outcomeMeasure: IC50

See these solved cases before continuing.
[[record]]
molecule = "CCn1cc(-c2ccc(F)cc2)c(=O)c(C(=O)Nc2ccc(Oc3ccnc4cc(OC)c(OC)nc34)cc2)c1C"
valuemeasured = "> 300 nM"

[[record]]
molecule = "COc1cc2nccc(Oc3ccc(NC(=O)c4cn(C)c(Cl)c(-c5ccc(F)cc5)c4=O)cc3F)c2nc1OC"
valuemeasured = "< 100 nM"

[[record]]
molecule = "COc1cc2nccc(Oc3ccc(NC(=O)c4c(C)c(C#N)c(C)n(-c5ccc(F)cc5)c4=O)cc3)c2nc1OC"
valuemeasured = "> 300 nM"


Please report the measured IC50 for "COc1cc2nccc(Oc3ccc(NC(=O)c4ccnn(-c5ccc(F)cc5)c4=O)cc3F)c2nc1OC" tested on KDR (phospho-KDR, VEGF165-stimulated HUVEC cells) (Homo sapiens (Human)). < 100 nM

GET IC50 where system = KDR (phospho-KDR, VEGF165-stimulated HUVEC cells) (Homo sapiens (Human)) and item = "COCc1nc(C)c(-c2ccc(F)cc2)c(O)c1C(=O)Nc1ccc(Oc2ccnc3cc(C)c(OC)nc23)c(F)c1" < 100 nM

# lookup: KDR (phospho-KDR, VEGF165-stimulated HUVEC cells) (Homo sapiens (Human)) IC50, key = "COCc1cnn(-c2ccc(F)cc2)c(=O)c1C(=O)Nc1ccc(Oc2ccnc3cc(OC)cnc23)c(F)c1" > 300 nM

Output reported IC50 of the molecule "COc1cnc2c(Oc3ccc(NC(=O)c4c(C)cc(C)n(-c5ccc(F)cc5)c4=O)cc3F)ccnc2c1" on KDR (phospho-KDR, VEGF165-stimulated HUVEC cells) (Homo sapiens (Human)). < 100 nM

Write down the reported IC50 (system: KDR (phospho-KDR, VEGF165-stimulated HUVEC cells) (Homo sapiens (Human))) of "COc1cnc2c(Oc3ccc(NC(=O)c4n[nH]c(C)c(-c5ccc(F)cc5)c4=O)cc3)ccnc2c1" < 100 nM

State, for KDR (phospho-KDR, VEGF165-stimulated HUVEC cells) (Homo sapiens (Human)), measured IC50 of the molecule listed here: "COc1cc2nccc(Oc3ccc(NC(=O)c4ccc(C)n(-c5ccc(F)cc5C)c4=O)cc3)c2nc1OC" < 100 nM

Answer briefly: IC50 recorded on KDR (phospho-KDR, VEGF165-stimulated HUVEC cells) (Homo sapiens (Human)) for "Cc1ccn(-c2ccc(F)cc2)c(=O)c1C(=O)Nc1ccc(Oc2ccnc3cccnc23)c(F)c1" > 300 nM

For KDR (phospho-KDR, VEGF165-stimulated HUVEC cells) (Homo sapiens (Human)), give the measured IC50 of the entry "Cc1cc2nccc(Oc3ccc(NC(=O)c4cnc(C)c(-c5ccc(F)cc5)c4O)cc3F)c2nc1OCCCN1CCOCC1" < 100 nM

Identify measured IC50 obtained with KDR (phospho-KDR, VEGF165-stimulated HUVEC cells) (Homo sapiens (Human)) for "COc1cc2nccc(Oc3cc(F)c(NC(=O)c4c(C)n(C)c(C)c(-c5ccc(F)cc5C)c4=O)cc3F)c2nc1OC" . 100 to 300 nM

Recall the reported IC50 of "COc1cnc2c(Oc3ccc(NC(=O)c4cn(C)c(C5CC5)c(-c5ccc(F)cc5)c4=O)cc3F)ccnc2c1" when tested on KDR (phospho-KDR, VEGF165-stimulated HUVEC cells) (Homo sapiens (Human)). > 300 nM

Identify measured IC50 obtained with KDR (phospho-KDR, VEGF165-stimulated HUVEC cells) (Homo sapiens (Human)) for COc1ccc(-c2c(C)n(C(C)C)cc(C(=O)Nc3ccc(Oc4ccnc5cc(OC)c(OC)nc45)c(F)c3)c2=O)cc1 [Compound 31, hydrochloride] . > 300 nM

Under KDR (phospho-KDR, VEGF165-stimulated HUVEC cells) (Homo sapiens (Human)): report IC50 of "CCOc1c(C(=O)Nc2ccc(Oc3ccnc4cc(OC)c(OC)cc34)c(F)c2)nnc(C)c1-c1ccc(F)cc1" . < 100 nM

Look up KDR (phospho-KDR, VEGF165-stimulated HUVEC cells) (Homo sapiens (Human)) data: IC50 of "COc1cc2nccc(Oc3ccc(NC(=O)c4cn(N=C(N(C)C)N(C)C)cc(-c5ccc(F)cc5)c4=O)cc3F)c2nc1OC" , then report it. 100 to 300 nM
